- System: J774A.1 (Mouse BALB/c monocyte macrophage cell line) cells
- PROTOCOL NOTES: LPS-induced TNF-α secretion inhibition in J774A.1 cells
- Type: cell-based
- CONDITION SET: J774.A1, 1 μM compound, graded compared to taurodeoxycholic acid (positive control), read-out: TNF-α production inhibition grade
Listed here: items and their measured inhibition at 1 µM.
OUTCOME MEASURE: inhibition at 1 µM

>  <COMPOUND>
CC[C@H]1[C@@H](O)[C@@H]2[C@H](C[C@H](O)[C@]3(C)[C@@H]([C@H](C)CCC(=O)N[C@H](C)CS(=O)(=O)O)CC[C@@H]23)[C@@]2(C)CC[C@@H](O)C[C@@H]12 [NC50029]

>  <REPORTED RESULT>
< 20%

$$$$
>  <COMPOUND>
C[C@H](CCC(=O)NCCC(=O)O)[C@H]1CC[C@H]2[C@@H]3CC[C@@H]4C[C@H](O)CC[C@]4(C)[C@H]3CC[C@]12C [NC10053]

>  <REPORTED RESULT>
50 to 100%

$$$$
>  <COMPOUND>
C[C@H](CCC(=O)N[C@H](CS(=O)(=O)O)c1ccccc1)[C@H]1CC[C@H]2[C@@H]3CC[C@@H]4C[C@H](O)CC[C@]4(C)[C@H]3CC[C@]12C [NC10069]

>  <REPORTED RESULT>
< 20%

$$$$
>  <COMPOUND>
C[C@H](CCC(=O)N[C@H](CS(=O)(=O)O)c1ccccc1)[C@H]1CC[C@H]2[C@@H]3CC[C@@H]4CC(=O)CC[C@]4(C)[C@H]3CC[C@]12C [NC30018]

>  <REPORTED RESULT>
< 20%

$$$$
>  <COMPOUND>
C[C@H](CCC(=O)N1CCC[C@@H]1CS(=O)(=O)O)[C@H]1CC[C@H]2[C@@H]3CC[C@@H]4C[C@H](O)CC[C@]4(C)[C@H]3CC[C@]12C [NC10076]

>  <REPORTED RESULT>
< 20%

$$$$
>  <COMPOUND>
CC[C@H]1[C@@H](O)[C@@H]2[C@H](CC[C@]3(C)[C@@H]([C@H](C)CCC(=O)N[C@@H](C)CS(=O)(=O)O)CC[C@@H]23)[C@@]2(C)CC[C@@H](O)C[C@@H]12 [NC40028]

>  <REPORTED RESULT>
< 20%

$$$$
>  <COMPOUND>
CC(C)C[C@H](CS(=O)(=O)O)NC(=O)CC[C@@H](C)[C@H]1CC[C@H]2[C@@H]3CC[C@@H]4C[C@H](O)CC[C@]4(C)[C@H]3CC[C@]12C [NC10087]

>  <REPORTED RESULT>
> 100%

$$$$
>  <COMPOUND>
CC[C@H]1[C@@H](O)[C@@H]2[C@H](CC[C@]3(C)[C@@H]([C@H](C)CCC(=O)N4CCC[C@H](S(=O)(=O)O)C4)CC[C@@H]23)[C@@]2(C)CC[C@@H](O)C[C@@H]12 [NC40009]

>  <REPORTED RESULT>
< 20%

$$$$
>  <COMPOUND>
C[C@H](CCC(=O)NC1(CS(=O)(=O)O)CC1)[C@H]1CC[C@H]2[C@@H]3[C@H](O)C[C@@H]4C[C@H](O)CC[C@]4(C)[C@H]3C[C@H](O)[C@]12C [NC20032]

>  <REPORTED RESULT>
< 20%

$$$$
>  <COMPOUND>
CC[C@H]1[C@@H](O)[C@@H]2[C@H](CC[C@]3(C)[C@@H]([C@H](C)CCC(=O)NC(C)(C)CS(=O)(=O)O)CC[C@@H]23)[C@@]2(C)CC[C@@H](O)C[C@@H]12 [NC40013]

>  <REPORTED RESULT>
< 20%

$$$$
>  <COMPOUND>
C[C@H](CCC(=O)NCCC(=O)O)[C@H]1CC[C@H]2[C@@H]3CC[C@@H]4CC(=O)CC[C@]4(C)[C@H]3CC[C@]12C [NC30002]

>  <REPORTED RESULT>
< 20%

$$$$
>  <COMPOUND>
CC(C)[C@H](CS(=O)(=O)O)NC(=O)CC[C@@H](C)[C@H]1CC[C@H]2[C@@H]3CC[C@@H]4C[C@H](O)CC[C@]4(C)[C@H]3CC[C@]12C [NC10073]

>  <REPORTED RESULT>
< 20%

$$$$
>  <COMPOUND>
C[C@H](CCC(=O)N[C@H]1CCCC[C@H]1S(=O)(=O)O)[C@H]1CC[C@H]2[C@@H]3[C@H](O)C[C@@H]4C[C@H](O)CC[C@]4(C)[C@H]3C[C@H](O)[C@]12C [NC20027]

>  <REPORTED RESULT>
< 20%

$$$$
>  <COMPOUND>
CC[C@H]1[C@@H](O)[C@@H]2[C@H](CC[C@]3(C)[C@@H]([C@H](C)CCC(=O)NCCC(=O)O)CC[C@@H]23)[C@@]2(C)CC[C@@H](O)C[C@@H]12 [NC40002]

>  <REPORTED RESULT>
< 20%

$$$$
>  <COMPOUND>
C[C@H](CCC(=O)N1CCC[C@@H]1CS(=O)(=O)O)[C@H]1CC[C@H]2[C@@H]3[C@H](O)C[C@@H]4C[C@H](O)CC[C@]4(C)[C@H]3C[C@H](O)[C@]12C [NC20020]

>  <REPORTED RESULT>
50 to 100%

$$$$
>  <COMPOUND>
C[C@H](CCC(=O)NCCN1CCOCC1)[C@H]1CC[C@H]2[C@@H]3CC[C@@H]4C[C@H](O)CC[C@]4(C)[C@H]3C[C@H](O)[C@]12C [NC10018]

>  <REPORTED RESULT>
50 to 100%

$$$$
>  <COMPOUND>
CC[C@H]1[C@@H](O)[C@@H]2[C@H](C[C@H](O)[C@]3(C)[C@@H]([C@H](C)CCC(=O)N[C@H](CS(=O)(=O)O)c4ccccc4)CC[C@@H]23)[C@@]2(C)CC[C@@H](O)C[C@@H]12 [NC50018]

>  <REPORTED RESULT>
< 20%

$$$$
>  <COMPOUND>
C[C@H](CCC(=O)N1CCC[C@H](S(=O)(=O)O)C1)[C@H]1CC[C@H]2[C@@H]3CC[C@@H]4CC(=O)CC[C@]4(C)[C@H]3CC[C@]12C [NC30009]

>  <REPORTED RESULT>
50 to 100%

$$$$
>  <COMPOUND>
CC(C)[C@H](CS(=O)(=O)O)NC(=O)CC[C@@H](C)[C@H]1CC[C@H]2[C@@H]3CC[C@@H]4C[C@H](O)CC[C@]4(C)[C@H]3C[C@H](O)[C@]12C [NC10033]

>  <REPORTED RESULT>
< 20%

$$$$
